# ASSAY_PROCEDURE: Preliminary in vivo toxicity study in mice
# EXPERIMENTAL_CONDITIONS: mouse, in vivo, read-out: LD50 (dose that caused at least 50% of mice to die)

# INPUT_SMILES, LD50
rows = [
    ("COc1ncc(-c2ccc(Cl)cc2)cc1[C@@H](c1ccccc1)[C@@](O)(CCN(C)C)c1cccc2ccccc12", "> 3000 mg/kg"),
]

---

# ASSAY_PROCEDURE: Pharmacokinetic study in mice
# Format: in vivo, BALB/c mice
# EXPERIMENTAL_CONDITIONS: BALB/c, mouse, in vivo; Mice, Po. 6.25 mg/kg; read-out: Tmax
READOUT_LABEL: Tmax (h)

# INPUT_SMILES, READOUT_LABEL, RECORDED_MEASUREMENT
data = [
    ("COc1nc2ccc(Br)cc2cc1[C@@H](c1ccccc1)[C@@](O)(CCN(C)C)c1cccc2ccccc12", "Tmax", 5.33),
]

---

# ASSAY_PROCEDURE: Pharmacokinetic study in rats
# Format: in vivo, rat
# EXPERIMENTAL_CONDITIONS: in vivo; Rat, Po. 5.0 mg/kg; read-out: AUC0-last

# COMPOUND, U, AUC(0-t)
records = [
    ("COc1nc2ccc(Br)cc2cc1[C@@H](c1ccccc1)[C@@](O)(CCN(C)C)c1cccc2ccccc12 [BDQ, bedaquiline]", "ng·h/mL", 2610),
]

---

# ASSAY_PROCEDURE: Pharmacokinetic study in beagle dogs
# Type: in vivo
# EXPERIMENTAL_CONDITIONS: dog, plasma, po, 20 mg/kg, beagle dogs, oral, range over doses of 2, 6, or 20 mg/kg, read-out: plasma half-life (t1/2)

# COMPOUND, half-life
data = [
    ("COc1ncc(-c2ccc(Cl)cc2)cc1[C@@H](c1ccccc1)[C@@](O)(CCN(C)C)c1cccc2ccccc12 [WX-081, sudapyridine]", "51 to 58 h"),
]

---

# ASSAY_PROCEDURE: Pharmacokinetic study in beagle dogs
# Type: in vivo
# EXPERIMENTAL_CONDITIONS: dog, in vivo, po, 2 mg/kg
READOUT_LABEL: bioavailability (%)

# INPUT_SMILES, RECORDED_MEASUREMENT
records = [
    ("COc1ncc(-c2ccc(Cl)cc2)cc1[C@@H](c1ccccc1)[C@@](O)(CCN(C)C)c1cccc2ccccc12", 58.9),
]

---

# ASSAY_PROCEDURE: Pharmacokinetic study in mice
# Assay type: in vivo, BALB/c mice
# EXPERIMENTAL_CONDITIONS: BALB/c, mouse, in vivo, po, 6.25 mg/kg
READOUT_LABEL: AUC(0-inf) (ng·h/mL)

# INPUT_SMILES, RECORDED_MEASUREMENT
measured = [
    ("COc1ncc(-c2ccc(Cl)cc2)cc1[C@@H](c1ccccc1)[C@@](O)(CCN(C)C)c1cccc2ccccc12", 11900),
]

---

Consider the following molecules and their measured half-life readings.
# ASSAY_PROCEDURE: Pharmacokinetic study in rats
# Assay type: in vivo, rat
# EXPERIMENTAL_CONDITIONS: plasma; Rat, Po. 5.0 mg/kg

# MOLECULE, U, half-life
records = [
    ("COc1ncc(-c2ccc(Cl)cc2)cc1[C@@H](c1ccccc1)[C@@](O)(CCN(C)C)c1cccc2ccccc12 [WX-081, sudapyridine]", "h", 29.8),
    ("COc1nc2ccc(Br)cc2cc1[C@@H](c1ccccc1)[C@@](O)(CCN(C)C)c1cccc2ccccc12 [BDQ, bedaquiline]", "h", 29.3),
]

Origin of values: paper PMC8849072
